target: LC3B L47A (human, UniProt Q9GZQ8 1-120, L47A); test: ITC; MicroCal iTC200, 25 °C; proteins 0.25 mmol/L and peptides 3 mmol/L, dialyzed against buffer B (20 mmol/L Tris-HCl, 200 mmol/L NaCl, 1 mmol/L EDTA, pH 8.0); single binding site model; conditions: both partners purified
pKd: −log10 of the molar value.
MEASUREMENT_KIND: pKd

BINDER | REPORTED_RESULT
DYESDDDSYEVLDLTE (FUNDC1 (Fun14 domain-containing protein 1), LIR and flanking residues 10-25; also called unphosphorylated FUNDC1 peptide; FUNDC1 peptide; source: synthetic peptide (GL Biochem, Shanghai)) [FUNDC1 LIR peptide 10-25, unphosphorylated] | 5.51

Source: paper PMC5233613
